Hi there, I'd appreciate the recorded %-inhibition, CDC2/CycB1 for every entry that follows.
target: panel of more than 300 wild-type and mutant kinases (313 kinase panel) (Homo sapiens); experiment: Kinase profiling in a biochemical assay panel (mobility shift assays and ELISA), %-inhibition at 1 μM; selectivity entropy; conditions: kinase CDC2/CycB1; 1 μM compound
Write the number in % without appending the unit.

What value of measured %-inhibition, CDC2/CycB1 is listed for CNC(=O)c1cc(Oc2ccc(NC(=O)Nc3ccc(Cl)c(C(F)(F)F)c3)c(F)c2)ccn1 [regorafenib] ? 0.529

Thanks! And N#CC[C@H](C1CCCC1)n1cc(-c2ncnc3[nH]ccc23)cn1 [ruxolitinib] ? 0.106

Thanks! And O=S(=O)(c1cccc2cnccc12)N1CCCNCC1 [fasudil] ? 6.46

Thanks! And COc1cc2nccc(Oc3ccc(NC(=O)C4(C(=O)Nc5ccc(F)cc5)CC4)cc3)c2cc1OC [cabozantinib] ? -17

Thanks! And C[C@@H](Oc1cc(-c2cnn(C3CCNCC3)c2)cnc1N)c1c(Cl)ccc(F)c1Cl [crizotinib] ? 19

Thanks! And CC(=O)Nc1cccc(-n2c(=O)n(C3CC3)c(=O)c3c(Nc4ccc(I)cc4F)n(C)c(=O)c(C)c32)c1 [trametinib] ? 8

Thanks! And COc1cc(Nc2c(C#N)cnc3cc(OCCCN4CCN(C)CC4)c(OC)cc23)c(Cl)cc1Cl [bosutinib] ? -1.38

Thanks! And CO[C@H]1C[C@@H]2CC[C@@H](C)[C@@](O)(O2)C(=O)C(=O)N2CCCC[C@H]2C(=O)O[C@H]([C@H](C)C[C@@H]2CC[C@@H](OC(=O)C(C)(CO)CO)[C@H](OC)C2)CC(=O)[C@H](C)/C=C(\C)[C@@H](O)[C@@H](OC)C(=O)[C@H](C)C[C@H](C)/C=C/C=C/C=C/1C [temsirolimus] ? -23

Thanks! And CCCS(=O)(=O)Nc1ccc(F)c(C(=O)c2c[nH]c3ncc(-c4ccc(Cl)cc4)cc23)c1F [vemurafenib] ? 10

Thanks! And CS(=O)(=O)CCNCc1ccc(-c2ccc3ncnc(Nc4ccc(OCc5cccc(F)c5)c(Cl)c4)c3c2)o1 [lapatinib] ? 0.355
